- Tested on: CP262
- METHOD SUMMARY: qHTS profiling for inhibitors of Plasmodium falciparum proliferation (AID 504749); also: nearly all actives have a fitted effect of over 60% in size
- CONDITION INFO: P. falciparum in erythrocytes, SYBR Green DNA, 72 h; series mostly up to 12.8 µM
Inconclusive results are not listed. Calls of active or inactive are those of the source. Calls follow the shape of the dose curve; as a rule, active = well fitted inhibition curve with a large enough effect; inconclusive = small, poorly fitted or top-dose-only effect; inactive = flat fitted curve, though single readings scatter.
Your answer must be one of the following: true (1) = active, false (0) = inactive

CCCC[C@H](CC)CN1CN(C[C@@H](CC)CCCC)CC(C)(N)C1 = false (0)

Answer briefly: the call reported for O=C(NC[C@@H](O)CO)c1c(I)c(C(=O)NC[C@@H](O)CO)c(I)c(N(CCO)C(=O)CO)c1I in this assay.
false (0)

Answer briefly: the call reported for CO[C@H]1[C@H](O[C@H]2O[C@@H](C)[C@@H](O[C@@H]3C[C@](C)(O)[C@H](OC(=O)CC(C)C)[C@H](C)O3)[C@@H](N(C)C)[C@@H]2O)[C@@H](CC=O)C[C@@H](C)[C@@H](O)/C=C\C=C/C[C@@H](C)OC(=O)C[C@H]1OC(C)=O in this assay.
true (1)

Answer briefly: the call reported for OCC1O[C@H](OC2C(CO)O[C@@](O)(CO)C2O)C(O)C(O)C1O (stereo partly drawn) in this assay.
false (0)

Answer briefly: the call reported for NC[C@@H]1O[C@@H](O[C@H]2[C@H](O)[C@H](O[C@@H]3O[C@H](CO)[C@@H](O)[C@H](N)[C@@H]3O)[C@@H](N)C[C@H]2N)[C@H](N)C[C@@H]1O in this assay.
false (0)

Answer briefly: the call reported for C[C@@H](CNC1CCCCC1)OC(=O)c1ccccc1 in this assay.
false (0)

Answer briefly: the call reported for C[C@@]12C=CC(=O)C=C1CCC1C3CC(O)[C@@](O)(C(=O)CO)[C@]3(C)CC(O)[C@]12F (stereo partly drawn) in this assay.
false (0)

Answer briefly: the call reported for C1CCN2C[C@@H]3C[C@@H](CN4CCCC[C@H]34)[C@H]2C1 in this assay.
false (0)
